- testedOn: human GLP-1R (Homo sapiens (Human), UniProt P43220, L260F)
- Sequence (P43220 24-463 L260F): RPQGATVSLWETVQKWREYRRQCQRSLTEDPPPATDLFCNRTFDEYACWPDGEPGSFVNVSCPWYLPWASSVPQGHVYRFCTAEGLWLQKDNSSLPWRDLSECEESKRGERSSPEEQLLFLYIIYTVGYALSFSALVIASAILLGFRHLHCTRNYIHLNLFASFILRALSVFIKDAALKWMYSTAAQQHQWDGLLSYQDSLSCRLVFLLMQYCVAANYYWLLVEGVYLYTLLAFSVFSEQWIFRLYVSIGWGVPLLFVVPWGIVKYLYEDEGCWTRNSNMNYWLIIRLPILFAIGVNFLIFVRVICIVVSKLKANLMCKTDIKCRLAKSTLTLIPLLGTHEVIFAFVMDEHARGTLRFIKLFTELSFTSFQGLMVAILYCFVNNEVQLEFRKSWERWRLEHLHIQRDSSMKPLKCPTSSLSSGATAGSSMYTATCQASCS
- assayProcedure: CHO GLP-1R Clone C6—Assay 2: HTRF cAMP cell-based functional agonist assay (low GLP-1R density)
- settings: CHO GLP-1R Clone C6; relative to saturating concentration of full agonist GLP-1 (1 μM); arithmetic mean; read-out: Assay 2 Emax (%)
parameter: Emax (%)

Consider the following illustrative entries.
Log: human GLP-1R (Homo sapiens (Human), UniProt P43220, L260F), molecule COCCn1c(CN2CCC(c3cccc(OCc4ccccc4)n3)CC2)nc2ccc(C(=O)O)cc21 , Emax = 100

Log: human GLP-1R (Homo sapiens (Human), UniProt P43220, L260F), molecule CCCn1cnnc1Cn1c(CN2CCC(c3cccc(OCc4ccc(Cl)cc4F)n3)CC2)nc2ccc(C(=O)O)cc21 , Emax = 94

Log: human GLP-1R (Homo sapiens (Human), UniProt P43220, L260F), molecule C[C@H]1CN(c2cccc(OCc3ccc(Cl)cc3F)n2)CCN1Cc1nc2ccc(C(=O)O)cc2n1Cc1ncco1 [Example 10A-18] , Emax = 78

A. CO[C@@H]1CCC[C@H]1n1c(CN2CCC(c3cccc(OCc4ccc(Cl)cc4F)n3)CC2)nc2ccc(C(=O)O)cc21
B. O=C(O)c1ccc2nc(CN3CCC(c4cccc(OCc5ccc(Cl)cc5F)n4)CC3)n(CCn3cncn3)c2c1 [Example 11A-17]
Q: Would you kindly point out which of A and B has the smaller Emax figure? Please reply using the label of the selected record.
A: A

###

- testedOn: human GLP-1R (Homo sapiens, UniProt P43220, G168S)
- Sequence (P43220 24-463 G168S limits assumed): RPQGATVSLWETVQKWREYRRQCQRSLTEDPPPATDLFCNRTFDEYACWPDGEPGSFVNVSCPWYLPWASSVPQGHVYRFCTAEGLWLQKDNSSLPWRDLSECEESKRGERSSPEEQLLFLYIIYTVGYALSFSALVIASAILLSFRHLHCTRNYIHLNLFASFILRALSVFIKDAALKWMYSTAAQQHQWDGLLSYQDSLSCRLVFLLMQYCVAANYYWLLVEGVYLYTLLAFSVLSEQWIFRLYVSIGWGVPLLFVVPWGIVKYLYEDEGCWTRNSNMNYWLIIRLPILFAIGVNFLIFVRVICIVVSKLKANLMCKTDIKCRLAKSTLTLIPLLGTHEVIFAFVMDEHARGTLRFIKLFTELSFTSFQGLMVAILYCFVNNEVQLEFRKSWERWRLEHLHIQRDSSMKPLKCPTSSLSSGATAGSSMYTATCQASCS
- assayProcedure: CHO GLP-1R Clone H6—Assay 1: HTRF cAMP cell-based functional agonist assay (high GLP-1R density)
- settings: read-out: Assay 1 EC50; CHO GLP-1R Clone H6, cAMP HTRF; geometric mean
parameter: EC50 (nM)

Consider the following illustrative entries.
// sample COC[C@H](C)n1c(CN2CCC(c3cccc(OCc4ccc(Cl)cc4F)n3)CC2)nc2ccc(C(=O)O)cc21 [Example 11A-45] , its EC50 was 290

// sample CCn1cncc1Cn1c(CN2CCN(c3cccc(OCc4ccc(Cl)cc4F)n3)C[C@@H]2C)nc2ccc(C(=O)O)cc21 [Example 10A-67] , its EC50 was 0.59

// sample O=C(O)c1ccc2nc(CN3CCC(c4cccc(OCc5ccc(Cl)cc5F)n4)CC3)n([C@H]3CCOC3)c2c1 [Example 10A-71] , its EC50 was 190

// sample C[C@H]1CN(c2cccc(OCc3ccc(C#N)cc3F)n2)CCN1Cc1nc2ccc(C(=O)O)cc2n1Cc1cnnn1C [Example 10A-23] , its EC50 was 38

A. CO[C@@H]1CCC[C@H]1n1c(CN2CCC(c3cccc(OCc4ccc(Cl)cc4F)n3)CC2)nc2ccc(C(=O)O)cc21 [Example 1A-27]
B. CCn1nncc1Cn1c(CN2CCN(c3cccc(OCc4ccc(C#N)cc4F)n3)CC2)nc2ccc(C(=O)O)cc21 [Example 10A-62]
Q: Would you kindly point out which of A and B has the smaller EC50 figure? Please reply using the label of the selected record.
A: B
(B: 2.9 nM, A: 190 nM)

1. O=C(O)c1ccc2nc(CN3CCC(c4cccc(OCc5ccc(Cl)cc5F)n4)CC3)n(C[C@@H]3CCCO3)c2c1 [Example 10A-73]
2. O=C(O)c1ccc2nc(CN3CCC(c4cccc(OCc5ccc(Cl)cc5F)n4)CC3)n(CCN3CCCC3=O)c2c1 [Example 10A-12]
3. Cn1cnc(Cn2c(CN3CCC(c4cccc(OCc5ccc(Cl)cc5F)n4)CC3)nc3ccc(C(=O)O)cc32)c1 [Example 10A-30]
Q: // ranking: key=EC50, reverse=True Reply with the item labels sorted in the order that was asked for.
A: 3, 2, 1
(3: 550 nM, 2: 110 nM, 1: 8.6 nM)

1. O=C(O)c1ccc2nc(CN3CCC(c4cccc(OCc5ccc(Cl)cc5F)n4)CC3)n(Cc3cc[nH]n3)c2c1 [Example 11A-24]
2. O=C(O)c1ccc2nc(CN3CCC(c4cccc(OCc5ccc(Cl)cc5F)n4)CC3)n(C[C@@H]3CCO3)c2n1 [Example 2A-23]
Q: Would you kindly point out which of 1 and 2 has the smaller EC50 figure? Please reply using the label of the selected record.
A: 2

###

- testedOn: human GLP-1R (Homo sapiens, UniProt P43220, G168S)
- assayProcedure: CHO GLP-1R Clone H6—Assay 1: HTRF cAMP cell-based functional agonist assay (high GLP-1R density)
- settings: read-out: Assay 1 Emax (%), CHO GLP-1R Clone H6; relative to saturating concentration of full agonist GLP-1 (1 μM); arithmetic mean
parameter: Emax (%)

Log: human GLP-1R (Homo sapiens, UniProt P43220, G168S), compound CC(c1cnn(C)n1)n1c(CN2CCC(c3cccc(OCc4ccc(Cl)cc4F)n3)CC2)nc2ccc(C(=O)O)cc21 (centres unmarked) [Example 11A-60] , Emax = 80

Log: human GLP-1R (Homo sapiens, UniProt P43220, G168S), compound COCCn1c(CN2CCC(c3cccc(OCc4ccc(Cl)cc4F)n3)CC2)nc2ccc(C(=O)O)cc21 , Emax = 85

Log: human GLP-1R (Homo sapiens, UniProt P43220, G168S), compound CCn1cncc1Cn1c(CN2CCC(c3cccc(OCc4ccc(F)cc4F)n3)CC2)nc2ccc(C(=O)O)cc21 [Example 10A-32] , Emax = 77

Log: human GLP-1R (Homo sapiens, UniProt P43220, G168S), compound COCCn1c(CN2CCN(c3cccc(OCc4ccc(Cl)cc4F)n3)[C@H](C)C2)nc2ccc(C(=O)O)cc21 , Emax = 71

Log: human GLP-1R (Homo sapiens, UniProt P43220, G168S), compound Cn1c(CN2CCC(c3cccc(OCc4ccc(C(F)(F)F)cc4F)n3)CC2)nc2ccc(C(=O)O)cc21 , Emax = 81

Log: human GLP-1R (Homo sapiens, UniProt P43220, G168S), compound COCCn1c(CN2CCC(c3cccc(OCc4ccc(C#N)c(C)c4)n3)CC2)nc2ccc(C(=O)O)cc21 , Emax = 80

Log: human GLP-1R (Homo sapiens, UniProt P43220, G168S), compound Cn1c(CN2CCC(c3cccc(OCc4ccccc4)n3)CC2)nc2ccc(C(=O)O)cc21 , Emax = 78

Log: human GLP-1R (Homo sapiens, UniProt P43220, G168S), compound CO[C@@H]1CCC[C@H]1n1c(CN2CCC(c3cccc(OCc4ccc(Cl)cc4F)n3)CC2)nc2ccc(C(=O)O)cc21 , Emax = 91

Log: human GLP-1R (Homo sapiens, UniProt P43220, G168S), compound C[C@H]1CN(c2cccc(OCc3ccc(Cl)cc3F)n2)CCN1Cc1nc2ccc(C(=O)O)cc2n1Cc1cnnn1C [Example 10A-22] , Emax = 67

Log: human GLP-1R (Homo sapiens, UniProt P43220, G168S), compound O=C(O)c1ccc2nc(CN3CCC(c4cccc(OCc5ccc(Cl)cc5F)n4)CC3)n(Cc3nnc[nH]3)c2c1 [Example 11A-25] , Emax = 77

Log: human GLP-1R (Homo sapiens, UniProt P43220, G168S), compound COCCn1c(CN2CCN(c3cccc(OCc4ccc(Cl)cc4F)n3)CC23CC3)nc2ccc(C(=O)O)cc21 [Example 12A-03] , Emax = 70

Log: human GLP-1R (Homo sapiens, UniProt P43220, G168S), compound COCCn1c(CN2CCN(c3cccc(OCc4ccc(Cl)cc4F)n3)C[C@@H]2C)nc2ccc(C(=O)O)cc21 [Example 12A-10] , Emax = 78

Log: human GLP-1R (Homo sapiens, UniProt P43220, G168S), compound COCCCn1c(CN2CCC(c3cccc(OCc4ccc(Cl)cc4F)n3)CC2)nc2ccc(C(=O)O)cc21 [Example 11A-38] , Emax = 80

Log: human GLP-1R (Homo sapiens, UniProt P43220, G168S), compound O=C(O)c1cc2c(cn1)nc(CN1CCC(c3cccc(OCc4ccc(Cl)cc4F)n3)CC1)n2C[C@@H]1CCO1 , Emax = 73

###

- testedOn: human GLP-1R (Homo sapiens, UniProt P43220, G168S)
- assayProcedure: CHO GLP-1R Clone H6—Assay 1: HTRF cAMP cell-based functional agonist assay (high GLP-1R density)
- settings: CHO GLP-1R Clone H6; relative to saturating concentration of full agonist GLP-1 (1 μM); arithmetic mean
parameter: Assay 1 Emax (%)

Log: human GLP-1R (Homo sapiens, UniProt P43220, G168S), compound N#Cc1ccc(COc2cccc(C3CCN(Cc4nc5ccc(C(=O)O)cc5n4CC4CCOC4)CC3)n2)c(F)c1 (single isomer, unassigned; enantiomer 2) [Example 14A-10] , Assay 1 Emax (%) = 64

Log: human GLP-1R (Homo sapiens, UniProt P43220, G168S), compound COCCn1c(CN2CCC(c3cccc(OCc4ccc(Cl)cc4F)n3)CC2C)nc2ccc(C(=O)O)cc21 (single isomer, unassigned) [Example 13A-03] , Assay 1 Emax (%) = 66

Log: human GLP-1R (Homo sapiens, UniProt P43220, G168S), compound COCCn1c(CN2CCC(c3cccc(OCc4ccc(Cl)cc4F)n3)CC2C)nc2ccc(C(=O)O)cc21 (single isomer, unassigned) [Example 13A-04] , Assay 1 Emax (%) = 66
